Values from PubChem BioAssay AID1159580

Recorded normalized growth for the following compounds
Test: chemical genetic growth profiling, strain panel (AID 1159580);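 further: tested at 20 µM; growth read once vehicle control cultures reached saturation at 30 °C; 1 = growth at the plate median or of vehicle wells; lower values mean less growth of the strain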
Conditions: S. cerevisiae deletion strains, growth OD, locus YLR113W, strain HOG1, hits give low values
Among all 5,500 compounds or so, about 2,000 (36%) were called active. Not shown: some 18% with an inconclusive outcome. The list shows a part of the results.
// print number alone

Prompt: Value lookup for normalized growth; key = CC(=O)OCC(=O)[C@@]1(O)CCC2C3CCC4=CC(=O)C=C[C@]4(C)[C@@]3(Cl)[C@@H](Cl)C[C@@]21C (stereo partly drawn)
Completion: 1.06

Prompt: // returns reported normalized growth for input `COc1ccc(Br)c(C(=O)/C(C#N)=C/c2cccs2)c1`
Completion: 0.23

Prompt: Reported normalized growth for `O=C(NC(=S)NNc1ncc(C(F)(F)F)cc1Cl)c1cccs1` : what is it?
Completion: 0.252

###

Assay: chemical genetic growth profiling, strain panel (AID 1159580)
Settings: S. cerevisiae deletion strains, growth OD, locus YJL128C, strain PBS2, hits give low values
About 2,000 (36%) of roughly 5,500 compounds were called active. Not shown: some 18% with an inconclusive outcome. The list shows a part of the results.
Measured normalized growth accompanies every entry in the list below.
Response field accepts a number only; no unit should be typed.

Prompt: Which normalized growth is reported for this compound? `N/C(=N/OC(=O)Nc1cccc(C(F)(F)F)c1)c1ccc(OC(F)(F)F)cc1`
Completion: 0.93

Prompt: Given the compound `O=S(=O)(Nc1ccccc1Sc1c(Cl)cncc1Cl)c1ccc(Cl)cc1` , what is its reported normalized growth?
Completion: 0.916

###

Assay: chemical genetic growth profiling, strain panel (AID 1159580)
Conditions: S. cerevisiae deletion strains, growth OD, locus YDL101C, strain DUN1, hits give low values
The whole screen tested about 5,500 compounds, of which about 2,000 (36%) were called active. About 18% were inconclusive and are not listed. Some of the results follow.
Listing: normalized growth of selected compounds
Form field (numeric): enter value without unit.

Prompt: Any idea what its normalized growth is? The compound is CC(=O)[C@@]1(O)CCC2C3C=C(Cl)C4=CC(=O)[C@@H]5CC5[C@]4(C)C3CC[C@@]21C (some centres undefined)
Completion: 1.01

Prompt: // returns reported normalized growth for input `CN1c2ccccc2C(=O)/C(=N/Nc2ccccc2F)S1(=O)=O`
Completion: 1.02

Prompt: What value of normalized growth has been recorded for this entry: `CCOC(=O)NC(=S)Nc1ccc(C(C)(C)C)cc1NC(=S)NC(=O)OCC`
Completion: 0.982

Prompt: What does the record list as normalized growth for `CCOC(=O)/C(C#N)=C/N=C(N/N=C\c1c(Cl)cccc1Cl)SC` ?
Completion: 1.04

Prompt: Any idea what normalized growth was measured for CC(C)(C)NCC(O)COc1cccc2c1C[C@H](O)[C@H](O)C2 (some centres undefined) ?
Completion: 0.999

Prompt: Sample `COC(=O)NC(=S)Nc1ccccc1NC(=S)NC(=O)OC` — what was its normalized growth?
Completion: 1.02

Prompt: Quick one: normalized growth for `Cc1ccc(OS(=O)(=O)c2ccc(Cl)cc2)c([N+](=O)[O-])n1` ?
Completion: 0.932

Prompt: Any idea what its normalized growth is? The compound is `O=C1OC(c2ccccc2)=C/C1=C/c1ccccc1`
Completion: 0.966

Prompt: Record request: normalized growth value, item `NC[C@H]1O[C@H](O[C@H]2[C@H](O)[C@@H](O[C@H]3O[C@H](CO)[C@@H](O)[C@H](N)[C@H]3O)[C@H](N)C[C@@H]2N)[C@H](N)[C@@H](O)[C@@H]1O`
Completion: 0.991

###

normalized growth values, listed per item
Assay: chemical genetic growth profiling, strain panel (AID 1159580)
Conditions: S. cerevisiae deletion strains, growth OD, locus YJL157C, strain FAR1, hits give low values
Hit rate of the full screen: of about 5,500 compounds, about 2,000 (36%) were called active. Not shown: some 18% with an inconclusive outcome. This is one part of the list.

Prompt: # get_value(readout='normalized growth', item= `N#Cc1nccnc1N1CCN(C(=O)Nc2cc(Cl)cc(Cl)c2)CC1` )
Completion: 0.925 (inactive)

###

As shown below, each of these compounds has a reported normalized growth value.
Assay: chemical genetic growth profiling, strain panel (AID 1159580)
Settings: S. cerevisiae deletion strains, growth OD, locus YOR316C, strain cot1, hits give low values
About 2,000 (36%) of roughly 5,500 compounds were called active. Roughly 18% stayed inconclusive and do not appear here. The list shows a part of the results.
Answer as a number with no unit attached.

CCOC(=O)CC(SP(=S)(OC)OC)C(=O)OCC (centres undefined)    1
CC(=O)N1CCCC1C(=O)O (centres undefined)    1.02
CC1(C)C(O)CC(=O)C2(C)C1CC(O)C1(C)C2CCC2(C)C(c3ccoc3)OC(=O)C3OC321 (centres undefined)    1.01

Please find the next compound below.
Prompt: # get_value(readout='normalized growth', item= Cc1c(OCC(F)(F)F)ccnc1CS(=O)c1nc2ccccc2[nH]1 (centres undefined) )
Completion: 0.988

###

Recorded normalized growth by entry
Test: chemical genetic growth profiling, strain panel (AID 1159580);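 further: tested at 20 µM; growth read once vehicle control cultures reached saturation at 30 °C; 1 = growth at the plate median or of vehicle wells; lower values mean less growth of the strain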
Conditions: S. cerevisiae deletion strains, growth OD, locus YPR141C, strain kar3, hits give low values
Hit rate of the full screen: of about 5,500 compounds, about 2,000 (36%) were called active. Roughly 18% stayed inconclusive and do not appear here. Some of the results follow.
I only need the number, thanks.

CO[C@@H]1[C@@H](OC(N)=O)[C@@H](O)[C@H](Oc2ccc3c(O)c(NC(=O)c4ccc(O)c(CC=C(C)C)c4)c(=O)oc3c2C)OC1(C)C    0.962

Prompt: normalized growth lookup needed for `Nc1nc(/C(=C/CC(=O)O)C(=O)N[C@@H]2C(=O)N3C(C(=O)O)=CCS[C@H]23)cs1` , thanks.
Completion: 0.99

Prompt: Requested field: normalized growth. Item: C/C=C/CC(C)C(O)C1C(=O)NC(CC)C(=O)N(C)CC(=O)N(C)C(CC(C)C)C(=O)NC(C(C)C)C(=O)N(C)C(CC(C)C)C(=O)NC(C)C(=O)NC(C)C(=O)N(C)C(CC(C)C)C(=O)N(C)C(CC(C)C)C(=O)N(C)C(C(C)C)C(=O)N1C (configuration not stated)
Completion: 1

###

Assay: chemical genetic growth profiling, strain panel (AID 1159580);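 further: tested at 20 µM; growth read once vehicle control cultures reached saturation at 30 °C; 1 = growth at the plate median or of vehicle wells; lower values mean less growth of the strain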
Settings: S. cerevisiae deletion strains, growth OD, locus YOR270C, strain vph1
In all, about 5,500 compounds went through this assay and about 2,000 (36%) were called active. Not shown: some 18% with an inconclusive outcome. Rule as the data show it: active = normalized growth mostly below about 0.91 (no sharp cut-off); inconclusive = no clear call, values can overlap the other calls; inactive = mostly above about 0.92. The list shows a part of the results.
Your answer must be one of the following: active, inactive

Solved entries:
NS(=O)(=O)c1cc2c(cc1C(F)(F)F)NC(Cc1ccccc1)NS2(=O)=O (stereo not given)    inactive
CN(C)CC[C@H](c1ccc(Cl)cc1)c1ccccn1    inactive
CC(C)=CC1C(CO)C1(C)C (stereo not given)    inactive
CCCc1nc(C)c2c(=O)[nH]c(-c3cc(S(=O)(=O)N4CCN(CC)CC4)ccc3OCC)nn12    inactive
Cc1cc(N)c2ccccc2[n+]1CCCCCCCCCC[n+]1c(C)cc(N)c2ccccc21    active

Prompt: Given `COc1ccccc1N1CCN(CCCNc2cc(=O)n(C)c(=O)n2C)CC1` , state the outcome it received in this test.
Completion: inactive

Prompt: Kindly provide the recorded test outcome for the following molecule: `O=c1c(O)cc([C@H]2Oc3cc(O)cc(O)c3C[C@H]2O)cc2c([C@H]3Oc4cc(O)cc(O)c4C[C@H]3O)cc(O)c(O)c12`
Completion: inactive

Prompt: Dear colleague, could you share the recorded outcome for `CCCc1nn(C)c2c(=O)[nH]c(-c3cc(S(=O)(=O)N4CCN(C)CC4)ccc3OCC)nc12` when you have a moment?
Completion: inactive

Prompt: Entry CC(C)(C)NCC(O)COc1cccc2c1C[C@H](O)[C@H](O)C2 (stereo not given in full) : call = ?
Completion: inactive

Prompt: Status in this test for `Oc1ccc([C@H]2Oc3cc(O)cc(O)c3C[C@H]2O)cc1` ?
Completion: inactive

###

Experiment: chemical genetic growth profiling, strain panel (AID 1159580);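 further: tested at 20 µM; growth read once vehicle control cultures reached saturation at 30 °C; 1 = growth at the plate median or of vehicle wells; lower values mean less growth of the strain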
Settings: S. cerevisiae deletion strains, growth OD, locus YNR030W, strain Alg12
The campaign covered roughly 5,500 compounds. About 2,000 (36%) were called active. Inconclusive results (about 18%) are left out. Cut-off read from the data, not from the text of the source: active = normalized growth mostly below about 0.91 (no sharp cut-off); inconclusive = no clear call, values can overlap the other calls; inactive = mostly above about 0.92. Some of the results follow.
Would you mind answering with one of these outcomes? 1.0 (active), 0.0 (inactive)

Before answering, review these 5 worked examples.
Cc1onc(-c2ccccc2)c1C(=O)On1c(-c2ccccc2)nc2ccccc2c1=O    1.0
COc1ccc([N+](=O)[O-])c(OC)c1C(N)=O    0.0
O=C(Nc1ccc(OC(F)(F)F)cc1)Nc1cccc(C(=O)O)c1    0.0
NNC(=O)c1cccnc1Oc1ccccc1    0.0
Cc1nnsc1C(=O)O/N=C1/CCSc2ccc(F)cc21    0.0

Prompt: Status in this test for `CNC(=S)N/N=C\c1cc(Br)cc(Br)c1O` ?
Completion: 1.0

Prompt: Please state the recorded outcome for this molecule: `COC(=O)c1cccnc1Sc1ccc(C)cc1`
Completion: 0.0

Prompt: // param item: `O=C1C(c2ccc(Br)cc2)=C(O)c2ccccc21` ; yields the recorded call
Completion: 0.0
